B1: tRNA (parent)
chain: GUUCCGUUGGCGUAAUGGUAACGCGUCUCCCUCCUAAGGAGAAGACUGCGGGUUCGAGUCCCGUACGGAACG

- Variants of: B1
- experiment: yeast fitness relative to wild type (ratio to wild type); higher = fitter; tRNA-Arg(CCU), competitive growth, 37 C, YPD
Variants at the floor of the assay were thinned out.
Attribute: yeast fitness
measurement-label: yeast fitness

* C31G C34A C55U U59C | ≤ 0.5
* C24A C31U A45U A69U | ≤ 0.5
* C30G C61U A69U | ≤ 0.5
* C4G C29G A36C A37U G38A A40C A45G G51A | ≤ 0.5
* A14C U47C C66U | ≤ 0.5
* G18A C22U A40C G68C | ≤ 0.5
* G12A U16C C55G A65C | ≤ 0.5
* U3C G23C C30A A36G G38C | ≤ 0.5
* U13A G23A A36C G38A C60G C62G | 0.557
* C5A C31G G63U | ≤ 0.5
* C4U A20U U28C C61G | ≤ 0.5
* U2C C11A C22G U54C G56A | ≤ 0.5
* A14C C27U C31U C33A G67C | 0.541
* G6A U8C A69C | 0.678
* C4A C22G C27U | 0.522
* A15G U54A A70U | 0.564
* C4A U28G C31U A40C A57G | ≤ 0.5
* U13A A20C | 0.715
* C4A C30G C49G | ≤ 0.5
* G12C C30G A37U G41A G58C | 0.581
* C5U U7A C34U G56A G67A | ≤ 0.5
* C5A U7A A36C G38C C55U C62A | ≤ 0.5
* C5G G23C C31G C60A A70U | ≤ 0.5
* C22A C27G A36G | ≤ 0.5
* G10A G41A C49U U53A C66G | 0.537
* G17C C33U A37C | ≤ 0.5
* C5U G9C G52C U54C A69C | ≤ 0.5
* C11G A42U A43C C55A C66A | ≤ 0.5
* C4U C61U A70G | 0.777
* C4U C24A A57U C60A G68C | ≤ 0.5
* G48C G56A C61A | ≤ 0.5
* C27G A36G G68A | ≤ 0.5
* U3A A42U A43G G48C U53A A69C | ≤ 0.5
* C24G C31A U64A | ≤ 0.5
* C22G A42U G63C | ≤ 0.5
* C27U G39C C60A | ≤ 0.5
* G51A A57U A65U | ≤ 0.5
* G17C A21G A40C G44C C61A | 0.622
* U7C C34U | 0.699
* G17C C30G C55G A70G | ≤ 0.5
* G10C U64A | 0.671
* G17C G51A G63C A69U | ≤ 0.5
* U7A C27G C34G U54A | ≤ 0.5
* G10C C66G | 0.515
* G41A G48C A57U A65U C66A | ≤ 0.5
* U8C A57U C61U | 0.536
* C5U A20U C30U | ≤ 0.5
* U7G C11G C34U G41A C46U | ≤ 0.5
* U19G C33G A37C C49G | ≤ 0.5
* A20U U35C G44C | 0.592
* C30G A57U C66U A70U | ≤ 0.5
* C5A G12A G48A C61U | ≤ 0.5
* U2A G9C U35A A36G | ≤ 0.5
* C31U G68A | 0.883
* A21G U28A A42C A57G C66A | 0.6
* U16G C31G G48C A57U | ≤ 0.5
* G17C G23A G25C C29G A36U G39A C46U C55U | ≤ 0.5
* U13A A36G | 1.02
* U28A A37C C61G G68U | ≤ 0.5
* C30G U32A A40U A42C A65C | ≤ 0.5
* G17A C31U G52A | ≤ 0.5
* C33A C34G | 0.755
* U3A C11G | 0.643
* G23C C24U A37C U53C | ≤ 0.5
* G12C A69C | 0.806
* G25C C27A C66U | ≤ 0.5
* C30U C46U A57U | 0.515
* C24A U47G G58A C62A | ≤ 0.5
* U16G C30A G51C G56C C62G | 0.65
* A15U C27G U54A | ≤ 0.5
* G9C C30U C31G | 0.632
* C4G A15U A40C C60A C61G A65C | ≤ 0.5
* U2C U28A | 0.563
